# measurement protocol: qHTS Assay for Lipid Storage Modulators (AID 1519)
# study conditions: Drosophila S3 cells, BODIPY lipid droplet/cell ratio, laser cytometry; measured here: cell count channel max response; cells loaded with oleic acid
Results filed as inconclusive are left out.
molecules and their reported max response
Provide the reading as a plain figure in %.

CO[C@]1(NC(=O)C(C(=O)O)c2ccc(O)cc2)C(=O)N2C(C(=O)O)=C(CSc3nnnn3C)COC21 (stereo partly specified) : 18.1
COC(=O)C(C)c1ccc(C(=O)c2cccs2)cc1 (stereo unspecified) : -1.55
C#C[C@@]1(OC(C)=O)CC[C@@H]2[C@@H]3CCC4=C[C@@H](OC(C)=O)CC[C@H]4[C@H]3CC[C@]21C : -9.18
CN(C)CCO[C@@H](c1ccc(Cl)cc1)c1ccccn1 : -21.7
CC[C@H]1NC(=O)c2cc(S(N)(=O)=O)c(Cl)cc2N1 : 0.892

Let us examine a further case.
-- ask Any idea what max response was measured for COc1c2c(nc3ccccc13)O[C@H]([C@@](C)(O)CO)C2 ?
-- reply -17.8
